Molecular target: T1, human 4Ig-B7H3 (B7H3-4Ig-His) (human, UniProt Q5ZPR3 29-466)
T1 construct: Recombinant His-tagged protein immobilised on a CM5 chip; also called 41g-B7H3; human 4Ig-B7-H3 (dominant isoform); not shown: His tag
T1 sequence: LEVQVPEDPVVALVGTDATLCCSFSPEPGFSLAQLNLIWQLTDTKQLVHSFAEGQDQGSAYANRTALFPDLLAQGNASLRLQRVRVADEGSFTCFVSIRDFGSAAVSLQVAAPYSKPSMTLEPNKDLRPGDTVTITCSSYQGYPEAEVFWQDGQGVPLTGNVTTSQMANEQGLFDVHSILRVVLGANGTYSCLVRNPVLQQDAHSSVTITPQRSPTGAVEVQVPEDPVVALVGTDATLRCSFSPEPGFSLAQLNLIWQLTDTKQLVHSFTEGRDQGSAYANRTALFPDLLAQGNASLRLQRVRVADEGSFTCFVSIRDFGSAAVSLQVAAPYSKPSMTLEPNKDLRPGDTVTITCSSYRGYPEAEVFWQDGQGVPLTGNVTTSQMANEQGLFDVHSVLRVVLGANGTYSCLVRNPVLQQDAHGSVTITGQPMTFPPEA
Test: SPR, Biacore T200, 4Ig-B7H3-His on CM5 chip, 1:1 fit
Items are presented alongside their recorded t ½.
measured-endpoint: t ½

binder | result
175Lu-DTPA-8H9-antibody (CAR3.6) (antibody, mouse IgG1, kappa, V domains shown, p-SCN-Bn-CHX-A″-DTPA conjugated (CAR 3.6 per antibody), labelled with cold lutetium-175; sites not stated) VH: QVQLQQSGAELVKPGASVKLSCKASGYTFTNYDINWVRQRPEQGLEWIGWIFPGDGSTQYNEKFKGKATLTTDTSSSTAYMQLSRLTSEDSAVYFCARQTTATWFAYWGQGTLVTVSA VL: DIVMTQSPATLSVTPGDRVSLSCRASQSISDYLHWYQQKSHESPRLLIKYASQSISGIPSRFSGSGSGSDFTLSINSVEPEDVGVYYCQNGHSFPLTFGAGTKLELKR | 43.3 min
175Lu-DTPA-8H9-antibody (CAR6.1) (antibody, mouse IgG1, kappa, V domains shown, p-SCN-Bn-CHX-A″-DTPA conjugated (CAR 6.1 per antibody), labelled with cold lutetium-175; sites not stated) VH: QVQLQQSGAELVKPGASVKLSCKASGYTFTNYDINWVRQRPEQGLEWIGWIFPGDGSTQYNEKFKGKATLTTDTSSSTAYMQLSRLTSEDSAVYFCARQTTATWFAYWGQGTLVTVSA VL: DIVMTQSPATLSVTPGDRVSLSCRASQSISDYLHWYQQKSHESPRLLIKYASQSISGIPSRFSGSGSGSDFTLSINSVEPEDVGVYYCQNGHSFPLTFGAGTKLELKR | 24 min
127I-8H9-antibody P76501A (antibody, mouse IgG1, kappa, V domains shown, labelled with iodine-127; sites not stated) VH: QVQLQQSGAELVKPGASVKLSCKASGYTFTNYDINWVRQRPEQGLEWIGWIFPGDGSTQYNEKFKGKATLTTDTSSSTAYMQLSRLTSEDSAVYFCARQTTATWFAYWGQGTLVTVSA VL: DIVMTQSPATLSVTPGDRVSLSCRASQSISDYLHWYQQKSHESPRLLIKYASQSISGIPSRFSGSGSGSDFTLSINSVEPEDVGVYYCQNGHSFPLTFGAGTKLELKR | 263 min
hu8H9-3.1 (antibody, V domains shown) VH: QVQLVQSGAEVVKPGASVKLSCKTSGYTFTNYDINWVRQRPGQGLEWIGWIFPGDDSTQYNEKFKGKATLTTDTSTSTAYMELSSLRSEDTAVYFCARQTTGTWFAYWGQGTLVTVSS VL: EIVMTQSPATLSVSPGERVTLSCRASQSISDYLYWYQQKSHESPRLLIKYASQSISGIPARFSGSGSGSEFTLTINSVEPEDVGVYYCQNGHSFPLTFGQGTKLELKR | 46.2 min
175Lu-DTPA-8H9-antibody (CAR1.4) (antibody, mouse IgG1, kappa, V domains shown, p-SCN-Bn-CHX-A″-DTPA conjugated (CAR 1.4 per antibody), labelled with cold lutetium-175; sites not stated) VH: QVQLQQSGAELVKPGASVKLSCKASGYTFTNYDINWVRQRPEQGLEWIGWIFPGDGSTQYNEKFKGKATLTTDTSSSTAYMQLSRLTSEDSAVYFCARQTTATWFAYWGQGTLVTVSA VL: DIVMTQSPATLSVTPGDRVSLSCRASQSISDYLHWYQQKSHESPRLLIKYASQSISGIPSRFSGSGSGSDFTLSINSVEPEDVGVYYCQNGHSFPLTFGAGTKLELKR | 75.8 min
